- Tested on: WEHI-231 JM cells
- Procedure Text: Viability by PI staining and FACS, WEHI-231 JM
- Assay type: cell-based, murine
- Experimental Conditions: Mus musculus, WEHI231, 24 hours
Experimental Readout: IC50 (nM)
Respond numerically; units are nM and should not be typed.

Ask: Find IC50 for CCCCCCCCCCCCCCC[C@H](O)[C@@H](N)CO (relative stereo) [DL-threo-dihydrosphingosine] on WEHI-231 JM cells and write it down.
Result: 3000

###

- Procedure Text: Acute lethality / tolerability in mice
- Experimental Conditions: mouse, in vivo, ip
Experimental Readout: LD50 (mg/kg)
Respond numerically; units are mg/kg and should not be typed.

Ask: Supply recorded LD50 for "COc1ccc2c(c[n+](C)c3c4cc5c(cc4ccc23)OCO5)c1OC" here.
Result: 25
